Test system: MDA-MB-435
Assay: Growth inhibition of human MDA-MB-435 cells after 48 hrs by sulforhodamine B assay
Assay type: functional
Conditions: MDA-MB-435, 48 h
Threshold 5 µM. GI50 below it: T. GI50 at it or above: F.

Example entries begin here.
> print(dat)
                            compound.string  system.under.test  classification
1  CC(C)=CCC/C(C)=C/CC/C(C)=C/CC[C@]1(C)CCc2c3c(c(C)c(C)c2O1)OCN(CCCCCO)C3         MDA-MB-435               F
2  CC(C)=CCC/C(C)=C/CC/C(C)=C/CC[C@]1(C)CCc2c3c(cc(C)c2O1)OCN(C1CCN(Cc2ccccc2)CC1)C3         MDA-MB-435               T
3  CC(C)=CCC/C(C)=C/CC/C(C)=C/CC[C@]1(C)CCc2c3c(cc(C)c2O1)OCN(CCCCCCO)C3         MDA-MB-435               T
4  CC(C)=CCC/C(C)=C/CC/C(C)=C/CC[C@]1(C)CCc2c3c(cc(C)c2O1)OCN(CCCCO)C3         MDA-MB-435               F
5  CC(C)=CCC/C(C)=C/CC/C(C)=C/CC[C@]1(C)CCc2c3c(cc(C)c2O1)OCN(CCCO)C3         MDA-MB-435               T
6  CC(C)=CCC/C(C)=C/CC/C(C)=C/CC[C@]1(C)CCc2c3c(c(C)c(C)c2O1)OCN(CCCCCCO)C3         MDA-MB-435               T

Would you kindly verify if GI50 of CC(C)=CCC/C(C)=C/CC/C(C)=C/CC[C@]1(C)CCc2c3c(c(C)c(C)c2O1)OCN(CCCCCCCCO)C3 is strictly less than 5 µM?
T

Would you kindly verify if GI50 of CC(C)=CCC/C(C)=C/CC/C(C)=C/CC[C@]1(C)CCc2c3c(cc(C)c2O1)OCN(CCCCCCCCO)C3 is strictly less than 5 µM?
T

Would you kindly verify if GI50 of COc1ccc(CCN2COc3cc(C)c4c(c3C2)CC[C@@](C)(CC/C=C(\C)CC/C=C(\C)CCC=C(C)C)O4)cc1OC is strictly less than 5 µM?
T

Would you kindly verify if GI50 of CC(C)=CCC/C(C)=C/CC/C(C)=C/CC[C@]1(C)CCc2c3c(cc(C)c2O1)OCN(CCc1ccc(O)cc1)C3 is strictly less than 5 µM?
T

Would you kindly verify if GI50 of CC(C)=CCC/C(C)=C/CC/C(C)=C/CC[C@]1(C)CCc2c3c(cc(C)c2O1)OCN(CCCCCO)C3 is strictly less than 5 µM?
F

Would you kindly verify if GI50 of CC(C)=CCC/C(C)=C/CC/C(C)=C/CC[C@]1(C)CCc2c3c(c(C)c(C)c2O1)OCN(CCCCO)C3 is strictly less than 5 µM?
T

---

Tested on: UO-31
Experiment: Growth inhibition of human UO31 cells assessed as cell growth at 10 uM after 48 hrs by sulforhodamine B assay
Format: functional
Conditions: UO-31, 48 h, read-out: Activity
Would you mind labelling by growth at 10 µM? At or over 60% is condition met, under is condition not met.

> print(dat)
                            compound.string     classification
1  CC(C)=CCC/C(C)=C/CC/C(C)=C/CC[C@]1(C)CCc2c3c(c(C)c(C)c2O1)OCN(CCCCCCO)C3  condition not met
2  CC(C)=CCC/C(C)=C/CC/C(C)=C/CC[C@]1(C)CCc2cc(O)c(C)c(C)c2O1      condition met
3  CC(C)=CCC/C(C)=C/CC/C(C)=C/CC[C@]1(C)CCc2c3c(cc(C)c2O1)OCN(CCCCCCO)C3  condition not met
4  CC(C)=CCC/C(C)=C/CC/C(C)=C/CC[C@]1(C)CCc2c3c(c(C)c(C)c2O1)OCN(CCCCCCCCCCCCO)C3      condition met
5  COc1ccc(CCN2COc3c(C)c(C)c4c(c3C2)CC[C@@](C)(CC/C=C(\C)CC/C=C(\C)CCC=C(C)C)O4)cc1OC      condition met

Threshold query (growth at 10 µM >= 60%) on CC(C)=CCC/C(C)=C/CC/C(C)=C/CC[C@]1(C)CCc2c3c(cc(C)c2O1)OCN(CCCCO)C3
condition not met

Threshold query (growth at 10 µM >= 60%) on CC(C)=CCC/C(C)=C/CC/C(C)=C/CC[C@]1(C)CCc2c3c(c(C)c(C)c2O1)OCN(CCCCCO)C3
condition met

---

System: UACC-257
Test: Growth inhibition of human UACC257 cells after 48 hrs by sulforhodamine B assay
Type: functional
Details: UACC-257, 48 h
Listed here are molecules together with their documented GI50.
Express it in µM; write the number only.

Worked set:
> print(dat)
                            compound.string  reading
1  CC(C)=CCC/C(C)=C/CC/C(C)=C/CC[C@]1(C)CCc2c3c(cc(C)c2O1)OCN(CCCCCCO)C3     0.62
2  CC(C)=CCC/C(C)=C/CC/C(C)=C/CC[C@]1(C)CCc2c3c(c(C)c(C)c2O1)OCN(CCCCCCO)C3     3.45
3  CC(C)=CCC/C(C)=C/CC/C(C)=C/CC[C@]1(C)CCc2c3c(cc(C)c2O1)OCN(CCCO)C3     1.79

Kindly consider the entry below.
Can you look up GI50 on UACC-257 for CC(C)=CCC/C(C)=C/CC/C(C)=C/CC[C@]1(C)CCc2c3c(c(C)c(C)c2O1)OCN(CCCCCCCCO)C3 ?
2.96

---

Test: Antiproliferative activity against mouse +SA cells by MTT assay
Assay type: functional, cell-based
Details: +SA cell
Listed here are compounds together with their documented log10 IC50.
Transform log10 | Measure IC50 | Unit µM

Worked set:
> print(dat)
                            compound.string  reading
1  COc1ccc(CCN2COc3cc4c(c(C)c3C2)O[C@](C)(CC/C=C(\C)CC/C=C(\C)CCC=C(C)C)CC4)cc1OC    -0.08
2  CC(C)=CCC/C(C)=C/CC/C(C)=C/CC[C@]1(C)CCc2c3c(c(C)c(C)c2O1)OCN(C1CCN(Cc2ccccc2)CC1)C3     0.94

For the compound shown here, CC(C)=CCC/C(C)=C/CC/C(C)=C/CC[C@]1(C)CCc2c3c(cc(C)c2O1)OCN(CCCCCO)C3 , give the reported log10 IC50.
-0.15

For the compound shown here, CC(C)=CCC/C(C)=C/CC/C(C)=C/CC[C@]1(C)CCc2c3c(cc(C)c2O1)OCN(CCCCCCCCCCO)C3 , give the reported log10 IC50.
0.56

For the compound shown here, CC(C)=CCC/C(C)=C/CC/C(C)=C/CC[C@]1(C)CCc2c3c(cc(C)c2O1)OCN(CCCCO)C3 , give the reported log10 IC50.
0.26

For the compound shown here, CC(C)=CCC/C(C)=C/CC/C(C)=C/CC[C@]1(C)CCc2c(CNCCc3ccc(O)cc3)c(O)c(C)c(C)c2O1 , give the reported log10 IC50.
0.36

For the compound shown here, CC(C)=CCC/C(C)=C/CC/C(C)=C/CC[C@]1(C)CCc2c3c(cc(C)c2O1)OCN(CCCO)C3 , give the reported log10 IC50.
0.26

---

Listed here are compounds together with their documented growth at 10 µM.
Tested on: MDA-MB-468
Experiment: Growth inhibition of human MDA-MB-468 cells assessed as cell growth at 10 uM after 48 hrs by sulforhodamine B assay
Format: functional
Settings: MDA-MB-468, 48 h, read-out: Activity
Don't forget the unit after the number, please.

Worked set:
> print(dat)
                             compound.string  reported.endpoint  reading
 1  COc1ccc(CCN2COc3c(C)c(C)c4c(c3C2)CC[C@@](C)(CC/C=C(\C)CC/C=C(\C)CCC=C(C)C)O4)cc1OC    growth at 10 µM    95.1%
 2  CC(C)=CCC/C(C)=C/CC/C(C)=C/CC[C@]1(C)CCc2c3c(cc(C)c2O1)OCN(CCCCCCO)C3    growth at 10 µM   -84.5%
 3  CC(C)=CCC/C(C)=C/CC/C(C)=C/CC[C@]1(C)CCc2c3c(cc(C)c2O1)OCN(CCc1ccc(O)cc1)C3    growth at 10 µM   -44.6%
 4  CC(C)=CCC/C(C)=C/CC/C(C)=C/CC[C@]1(C)CCc2c3c(cc(C)c2O1)OCN(CCCCCCCCO)C3    growth at 10 µM   -90.7%
 5  COc1ccc(CCNCc2c(O)c(C)c(C)c3c2CC[C@@](C)(CC/C=C(\C)CC/C=C(\C)CCC=C(C)C)O3)cc1OC    growth at 10 µM    59.1%
 6  CC(C)=CCC/C(C)=C/CC/C(C)=C/CC[C@]1(C)CCc2c3c(c(C)c(C)c2O1)OCN(CCCCO)C3    growth at 10 µM      57%
 7  CC(C)=CCC/C(C)=C/CC/C(C)=C/CC[C@]1(C)CCc2c3c(cc(C)c2O1)OCN(CCCCCCCCCCCCO)C3    growth at 10 µM    77.4%
 8  CC(C)=CCC/C(C)=C/CC/C(C)=C/CC[C@]1(C)CCc2c3c(cc(C)c2O1)OCN(CCCCO)C3    growth at 10 µM   -63.2%
 9  COc1ccc(CCN2COc3cc(C)c4c(c3C2)CC[C@@](C)(CC/C=C(\C)CC/C=C(\C)CCC=C(C)C)O4)cc1OC    growth at 10 µM   -25.4%
10  CC(C)=CCC/C(C)=C/CC/C(C)=C/CC[C@]1(C)CCc2c3c(cc(C)c2O1)OCN(C1CCN(Cc2ccccc2)CC1)C3    growth at 10 µM    0.33%

For the compound shown here, CC(C)=CCC/C(C)=C/CC/C(C)=C/CC[C@]1(C)CCc2c3c(c(C)c(C)c2O1)OCN(CCc1ccc(O)cc1)C3 , give the reported growth at 10 µM.
88.8%

For the compound shown here, CC(C)=CCC/C(C)=C/CC/C(C)=C/CC[C@]1(C)CCc2c3c(c(C)c(C)c2O1)OCN(CCCCCCCCCCCCO)C3 , give the reported growth at 10 µM.
106%

For the compound shown here, CC(C)=CCC/C(C)=C/CC/C(C)=C/CC[C@]1(C)CCc2cc(O)c(C)c(C)c2O1 , give the reported growth at 10 µM.
108%

For the compound shown here, CC(C)=CCC/C(C)=C/CC/C(C)=C/CC[C@]1(C)CCc2c3c(c(C)c(C)c2O1)OCN(CCCCCO)C3 , give the reported growth at 10 µM.
87.4%

For the compound shown here, CC(C)=CCC/C(C)=C/CC/C(C)=C/CC[C@]1(C)CCc2c3c(cc(C)c2O1)OCN(CCCO)C3 , give the reported growth at 10 µM.
-29%

For the compound shown here, CC(C)=CCC/C(C)=C/CC/C(C)=C/CC[C@]1(C)CCc2c3c(cc(C)c2O1)OCN(CCCCCCCCCCO)C3 , give the reported growth at 10 µM.
83.8%
